systemTested: C-type lectin domain family 4 member E (Homo sapiens) (UniProt Q9ULY5)
Sequence (whole entry): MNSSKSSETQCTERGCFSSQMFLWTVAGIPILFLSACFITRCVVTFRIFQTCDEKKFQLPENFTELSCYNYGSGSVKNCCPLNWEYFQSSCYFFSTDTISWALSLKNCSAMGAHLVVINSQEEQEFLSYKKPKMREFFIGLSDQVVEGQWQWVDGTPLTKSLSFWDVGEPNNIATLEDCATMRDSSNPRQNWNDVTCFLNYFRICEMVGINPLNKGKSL
protocolDescription: Agonist activity at human mincle coupled with FcRgamma expressed in 2B4-NFAT-GFP reporter cells at 3 nmol/well after 16 hrs by flow cytometric analysis
Assay type: cell-based
Activity calls are given as the source filed them. The rule behind the calls is not given here.
Outcome codes: active, inactive

CCCCCCC(CCCCCCCCCCC(=O)OC)O[C@H]1O[C@H](CO)[C@@H](O)[C@H](O)[C@@H]1O[C@H]1O[C@H](CO)[C@@H](O)[C@H](O)[C@@H]1O (some centres undefined): active
CCCCCCC(CCCCCCCCCCC(=O)OC)O[C@H]1O[C@H](CO)[C@@H](O)[C@H](O)[C@@H]1O[C@@H]1O[C@H](CO)[C@@H](O)[C@H](O)[C@@H]1O (some centres undefined): active
CCCCCCC(CCCCCCCCCCC(=O)OC)O[C@H]1O[C@H](CO)[C@H](O)[C@H](O)[C@H]1O (some centres undefined): inactive
CCCCCCC(CCCCCCCCCCC(=O)OC)O[C@@H]1O[C@H](CO)[C@@H](O[C@@H]2O[C@H](CO)[C@@H](O)[C@H](O)[C@H]2O)[C@H](O)[C@H]1O (some centres undefined): inactive
CCCCCCC(CCCCCCCCCCC(=O)OC)O[C@H]1O[C@H](CO)[C@@H](O)[C@H](O)[C@H]1O (some centres undefined): inactive
CCCCCCC(CCCCCCCCCCC(=O)OC)O[C@H]1O[C@H](CO)[C@@H](O)[C@H](O)[C@@H]1O (some centres undefined): inactive
CCCCCCC(CCCCCCCCCCC(=O)OC)O[C@@H]1O[C@H](CO)[C@@H](O)[C@H](O)[C@H]1O (some centres undefined): inactive
CCCCCCC(CCCCCCCCCCC(=O)OC)O[C@@H]1O[C@H](CO)[C@H](O)[C@H](O)[C@H]1O (some centres undefined): inactive
CCCCCCC(CCCCCCCCCCC(=O)OC)O[C@@H]1O[C@H](CO)[C@@H](O)[C@H](O)[C@@H]1O[C@H]1O[C@H](CO)[C@@H](O)[C@H](O)[C@@H]1O (some centres undefined): active
CCCCCCC(CCCCCCCCCCC(=O)OC)O[C@@H]1O[C@H](CO)[C@@H](O[C@H]2O[C@H](CO)[C@@H](O)[C@H](O)[C@H]2O)[C@H](O)[C@H]1O (some centres undefined): inactive
CCCCCCC(CCCCCCCCCCC(=O)OC)O[C@@H]1O[C@H](CO)[C@@H](O)[C@H](O)[C@@H]1O (some centres undefined): inactive
CCCCCCC(CCCCCCCCCCC(=O)OC)O[C@@H]1O[C@H](CO[C@H]2O[C@H](CO)[C@H](O)[C@H](O)[C@H]2O)[C@@H](O)[C@H](O)[C@H]1O (some centres undefined): inactive
CCCCCCC(CCCCCCCCCCC(=O)OC)O[C@@H]1O[C@H](CO)[C@@H](O)[C@H](O)[C@@H]1O[C@@H]1O[C@H](CO)[C@@H](O)[C@H](O)[C@@H]1O (some centres undefined): active
CCCCCCC(CCCCCCCCCCC(=O)OC)O[C@@H]1O[C@H](CO[C@H]2O[C@H](CO)[C@@H](O)[C@H](O)[C@H]2O)[C@@H](O)[C@H](O)[C@H]1O (some centres undefined): inactive
